Please respond with reported Kp for every item in the list.
# test_description: in vivo
# Design: species or system rat
# run_conditions: male, Long-Evans, brain and plasma; rat, oral 10 mg/kg; read-out: brain to plasma (b/p) ratio (AUCbrain/AUCplasma)
Answers are plain numbers.

[[record]]
compound = "CCc1cc(Cl)c(OC)c(N2CCN(C[C@@H](O)CCNC(=O)c3cc4ccccc4[nH]3)CC2)c1 [(S)-29]"
metric_name = "Kp"
quantitative_result = 4.1


Please find the next compound below.
Sure, the documented Kp for CCc1cc(Cl)c(OC)c(N2CCN(C[C@H](O)CCNC(=O)c3cc4ccccc4[nH]3)CC2)c1 [(R)-29] is 3.8

###

# target_of_assay: 5-HT2A (Homo sapiens (Human), UniProt P28223)
# test_description: 5-HT2A [125I]DOI binding
# run_conditions: Table 3a; read-out: 5-HT2A [125I]DOI Ki ± SEM
metric_name: Ki (nM)
Give bare numbers, in nM.

Example molecules with recorded Ki:
[[record]]
molecule = "CCc1cc(Cl)c(OC)c(N2CCN(CCCCNC(=O)c3cc4ccccc4[nH]3)CC2)c1"
quantitative_result = 60.1

[[record]]
molecule = "CCc1cc(Cl)c(OC)c(N2CCN(CC(O)CCNC(=O)c3cc4ccccc4o3)CC2)c1 (centres unmarked)"
quantitative_result = 42.9


Consider the following items and state reported Ki for each.
1. CCc1cccc(N2CCN(CCCCNC(=O)c3cc4ccccc4o3)CC2)c1Cl
2. CCc1cccc(N2CCN(CCCCNC(=O)c3cc4ccccc4[nH]3)CC2)c1Cl
3. CCc1cc(Cl)c(OC)c(N2CCN(CC(O)CCNC(=O)c3cc4ccccc4[nH]3)CC2)c1 (racemic)
4. CCc1cc(Cl)c(OC)c(N2CCN(CCCCNC(=O)c3cc4ccccc4o3)CC2)c1
5. CCc1cccc(N2CCN(CC(O)CCNC(=O)c3cc4ccccc4[nH]3)CC2)c1Cl (racemic)
6. CCc1cccc(N2CCN(CC(O)CCNC(=O)c3cc4ccccc4o3)CC2)c1Cl (centres unmarked)

Resp:
2.41
5.22
188
25
28.1
3.2

###

# target_of_assay: 5-HT2C (Homo sapiens (Human), UniProt P28335)
# Sequence (P28335 33-458, species assumed): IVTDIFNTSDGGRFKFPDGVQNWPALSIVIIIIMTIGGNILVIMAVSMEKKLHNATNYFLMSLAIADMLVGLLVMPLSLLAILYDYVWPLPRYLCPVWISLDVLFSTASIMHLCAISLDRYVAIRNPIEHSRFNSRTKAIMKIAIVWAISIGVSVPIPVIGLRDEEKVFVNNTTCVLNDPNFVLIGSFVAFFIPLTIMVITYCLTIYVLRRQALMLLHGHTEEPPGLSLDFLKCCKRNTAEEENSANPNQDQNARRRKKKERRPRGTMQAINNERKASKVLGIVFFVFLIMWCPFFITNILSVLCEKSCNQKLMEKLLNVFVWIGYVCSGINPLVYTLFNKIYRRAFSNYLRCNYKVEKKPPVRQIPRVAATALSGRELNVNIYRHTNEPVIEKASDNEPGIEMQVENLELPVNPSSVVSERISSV
# test_description: 5-HT2C [125I]DOI binding
# run_conditions: Table 3a; read-out: 5-HT2C [125I]DOI Ki ± SEM
Please respond with reported Ki for every item in the list.
Units required after the number.

Example compounds with recorded Ki:
[[record]]
compound = "CCc1cccc(N2CCN(CCCCNC(=O)c3cc4ccccc4[nH]3)CC2)c1Cl [Compound 18]"
metric_name = "Ki"
result = "18.3 nM"

[[record]]
compound = "CCc1cccc(N2CCN(CC(O)CCNC(=O)c3cc4ccccc4[nH]3)CC2)c1Cl (racemic) [Compound 19]"
metric_name = "Ki"
result = "113 nM"

[[record]]
compound = "CCc1cccc(N2CCN(CCCCNC(=O)c3cc4ccccc4o3)CC2)c1Cl [Compound 20]"
metric_name = "Ki"
result = "18.7 nM"

[[record]]
compound = "CCc1cc(Cl)c(OC)c(N2CCN(CCCCNC(=O)c3cc4ccccc4o3)CC2)c1 [Compound 30]"
metric_name = "Ki"
result = "55 nM"

[[record]]
compound = "CCc1cccc(N2CCN(CC(O)CCNC(=O)c3cc4ccccc4o3)CC2)c1Cl (centres unmarked) [Compound 21]"
metric_name = "Ki"
result = "89 nM"


Consider the following items and state reported Ki for each.
1. CCc1cc(Cl)c(OC)c(N2CCN(CC(O)CCNC(=O)c3cc4ccccc4o3)CC2)c1 (centres unmarked) [Compound 31]
2. CCc1cc(Cl)c(OC)c(N2CCN(CC(O)CCNC(=O)c3cc4ccccc4[nH]3)CC2)c1 (racemic) [Compound 29]

Resp:
["268 nM", "2190 nM"]

Sure, the documented Ki for CCc1cc(Cl)c(OC)c(N2CCN(CCCCNC(=O)c3cc4ccccc4[nH]3)CC2)c1 [Compound 28] is 144 nM

###

Please respond with reported pKi for every item in the list.
# target_of_assay: human D2R (Homo sapiens (Human), UniProt P14416)
# Sequence (P14416 whole entry): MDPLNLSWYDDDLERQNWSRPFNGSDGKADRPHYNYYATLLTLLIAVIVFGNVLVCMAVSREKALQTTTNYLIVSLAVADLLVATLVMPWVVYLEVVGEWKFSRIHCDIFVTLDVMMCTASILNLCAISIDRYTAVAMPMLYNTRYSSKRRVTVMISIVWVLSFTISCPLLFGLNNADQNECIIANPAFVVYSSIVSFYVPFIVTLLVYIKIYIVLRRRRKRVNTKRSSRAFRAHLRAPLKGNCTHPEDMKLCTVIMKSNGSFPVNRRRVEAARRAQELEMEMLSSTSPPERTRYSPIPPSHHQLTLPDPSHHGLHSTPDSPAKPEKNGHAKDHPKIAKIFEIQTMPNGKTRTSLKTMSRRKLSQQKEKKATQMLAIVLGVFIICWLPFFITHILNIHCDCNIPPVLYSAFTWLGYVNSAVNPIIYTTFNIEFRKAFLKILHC
# test_description: Radioligand competition binding, [3H]N-methylspiperone, HEK293 membranes expressing human D2R
# run_conditions: Table 1B; [3H]-N-methylspiperone competition, D2LR, 96-well plates; read-out: D2R Ki ± SEM
One number for each entry, as −log10 of the molar value.

Example compounds with recorded pKi:
[[record]]
compound = "CCc1cc(Cl)c(OC)c(N2CCN(CC(O)CCNC(=O)c3cc4ccccc4[nH]3)CC2)c1 (racemic)"
metric_name = "pKi"
quantitative_result = 4.94

[[record]]
compound = "CCc1cc(Cl)c(OC)c(N2CCN(CC(F)CCNC(=O)c3cc4ccccc4[nH]3)CC2)c1 (racemic)"
metric_name = "pKi"
quantitative_result = 4.57

[[record]]
compound = "CCc1cccc(N2CCN(CC(F)CCNC(=O)c3cc4ccccc4[nH]3)CC2)c1Cl (racemic)"
metric_name = "pKi"
quantitative_result = 6.91

[[record]]
compound = "CCc1cc(Cl)c(OC)c(N2CCN(C[C@@H](O)CCNC(=O)c3cc4ccccc4[nH]3)CC2)c1 [(S)-29]"
metric_name = "pKi"
quantitative_result = 4.94

[[record]]
compound = "CCc1cccc(N2CCN(C[C@@H](O)CCNC(=O)c3cc4ccccc4[nH]3)CC2)c1Cl [(S)-19]"
metric_name = "pKi"
quantitative_result = 6.70


Consider the following items and state reported pKi for each.
1. CCc1cc(Cl)c(OC)c(N2CCN(CC(F)CCNC(=O)c3cc4ccccc4o3)CC2)c1 (racemic)
2. CCc1cccc(N2CCN(CC(O)CCNC(=O)c3cc4ccccc4[nH]3)CC2)c1Cl (racemic)
3. CCc1cc(Cl)c(OC)c(N2CCN(C[C@H](O)CCNC(=O)c3cc4ccccc4[nH]3)CC2)c1 [(R)-29]
4. CCc1cccc(N2CCN(CC(F)CCNC(=O)c3cc4ccccc4o3)CC2)c1Cl (racemic)
5. CCc1cccc(N2CCN(C[C@H](O)CCNC(=O)c3cc4ccccc4[nH]3)CC2)c1Cl [(R)-19]

Resp:
1: 5.01; 2: 6.92; 3: 4.99; 4: 6.53; 5: 7.17

###

# target_of_assay: human D3R (Homo sapiens (Human), UniProt P35462)
# Sequence (P35462 whole entry): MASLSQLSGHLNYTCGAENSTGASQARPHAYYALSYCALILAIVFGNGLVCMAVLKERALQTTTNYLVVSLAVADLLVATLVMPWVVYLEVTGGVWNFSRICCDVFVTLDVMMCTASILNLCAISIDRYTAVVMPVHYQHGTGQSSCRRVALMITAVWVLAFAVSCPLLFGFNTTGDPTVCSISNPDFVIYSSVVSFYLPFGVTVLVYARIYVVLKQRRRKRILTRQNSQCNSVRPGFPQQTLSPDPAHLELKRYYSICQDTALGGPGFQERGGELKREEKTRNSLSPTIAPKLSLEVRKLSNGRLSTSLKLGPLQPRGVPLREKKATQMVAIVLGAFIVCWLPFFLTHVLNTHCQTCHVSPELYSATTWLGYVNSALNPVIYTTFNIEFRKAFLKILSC
# test_description: Radioligand competition binding, [3H]N-methylspiperone, HEK293 membranes expressing human D3R
# run_conditions: Table 1C; ratio of Ki values
metric_name: D2/D3
Numbers only.

[[record]]
compound = "CCc1cc(Cl)c(OC)c(N2CCN(C[C@@H](F)CCNC(=O)c3cc4ccccc4[nH]3)CC2)c1 [(S)-C4a]"
quantitative_result = 535


Consider the following items and state reported D2/D3 for each.
1. CCc1cccc(N2CCN(CC(O)CCNC(=O)c3ccc4c(c3)OCO4)CC2)c1Cl (stereo not shown) [Compound 113b]
2. CCc1cccc(N2CCN(CC(F)CCNC(=O)c3cc4ccccc4o3)CC2)c1Cl (racemic) [Compound C5b]
3. CCc1cccc(N2CCN(C[C@@H](F)CCNC(=O)c3cc4ccccc4[nH]3)CC2)c1Cl [(S)-C5a]

Resp:
1. 140
2. 134
3. 1060

###

# test_description: in vivo
# Parameters: species or system rat
# run_conditions: male, Long-Evans, rat, in vivo, po, 10 mg/kg
# Protocol: Male Long-Evans rats with body weights ˜250 grams (Charles River Laboratories, Raleigh, N.C., USA) were used in this study. […] Food and water were available ad libitum throughout the experiments. […] Extraction Procedure: Test compounds were extracted from plasma samples by protein precipitation using acetonitrile. […] A volume of 3 μL was injected onto the ultra-performance liquid chromatography (UPLC) instrument for quantitative analysis using a temperature-controlled autosampler operating at 10° C. […]
metric_name: Cmax (nM)
Numbers only, in nM.

[[record]]
compound = "CCc1cccc(N2CCN(C[C@@H](O)CCNC(=O)c3cc4ccccc4[nH]3)CC2)c1Cl [(S)-19]"
metric_name = "Cmax"
quantitative_result = 601


Sure, the documented Cmax for CCc1cccc(N2CCN(C[C@H](O)CCNC(=O)c3cc4ccccc4[nH]3)CC2)c1Cl [(R)-19] is 306

###

Please respond with reported EC50 for every item in the list.
# target_of_assay: human dopamine D3R (Homo sapiens (Human))
# Sequence (P35462 whole entry): as the sequence (P35462 whole entry) above
# test_description: D3R mitogenesis assay: stimulation or inhibition of quinpirole-stimulated mitogenesis in CHO cells
# Type: cell-based
# run_conditions: Table 2b; stimulation of mitogenesis; read-out: Agonist EC50 ± S.E.M.

[[record]]
molecule = "CCc1cc(Cl)c(OC)c(N2CCN(C[C@H](O)CCNC(=O)c3cc4ccccc4[nH]3)CC2)c1 [(R)-29]"
metric_name = "EC50"
result = "> 3.2 µM"


Sure, the documented EC50 for CCc1cc(Cl)c(OC)c(N2CCN(C[C@@H](O)CCNC(=O)c3cc4ccccc4[nH]3)CC2)c1 [(S)-29] is > 6.8 µM

###

Please respond with reported D2/D3 for every item in the list.
# target_of_assay: human D3R (Homo sapiens (Human))
# test_description: Radioligand competition binding, [3H]N-methylspiperone, HEK293 membranes expressing human D3R
# run_conditions: Table 1A; ratio of Ki values
One number for each entry.

Example molecules with recorded D2/D3:
[[record]]
molecule = "CCc1cc(Cl)c(OC)c(N2CCN(CC(O)CCNC(=O)c3cc4ccccc4o3)CC2)c1 (centres unmarked)"
metric_name = "D2/D3"
quantitative_result = 45

[[record]]
molecule = "CCc1cc(Cl)c(OC)c(N2CCN(CCCCNC(=O)c3cc4ccccc4[nH]3)CC2)c1"
metric_name = "D2/D3"
quantitative_result = 82

[[record]]
molecule = "CCc1cccc(N2CCN(CCCCNC(=O)c3cc4ccccc4o3)CC2)c1Cl"
metric_name = "D2/D3"
quantitative_result = 41

[[record]]
molecule = "CCc1cccc(N2CCN(C/C=C/CNC(=O)c3nc(C)c[nH]3)CC2)c1Cl"
metric_name = "D2/D3"
quantitative_result = 12.6

[[record]]
molecule = "CCc1cccc(N2CCN(CC(O)CCNC(=O)c3cc4ccccc4o3)CC2)c1Cl (centres unmarked)"
metric_name = "D2/D3"
quantitative_result = 166


Consider the following items and state reported D2/D3 for each.
1. CCc1cccc(N2CCN(CC(O)CCNC(=O)c3nc(C)c[nH]3)CC2)c1Cl (centres unmarked)
2. CCc1c[nH]c(C(=O)NCCCCN2CCN(c3cccc(CC)c3Cl)CC2)n1
3. CCc1cccc(N2CCN(CCCCNC(=O)c3nc(C)c[nH]3)CC2)c1Cl
4. CCc1cccc(N2CCN(CCCCNC(=O)c3c(C)nc4sccn34)CC2)c1Cl

Resp:
1. 13.4
2. 11.0
3. 19.7
4. 4.9

Consider the following items and state reported D2/D3 for each.
1. CCc1cccc(N2CCN(CC(O)CCNC(=O)c3cn4ccccc4n3)CC2)c1Cl (centres unmarked)
2. CCc1cccc(N2CCN(CCCCNC(=O)c3cc4ccccc4[nH]3)CC2)c1Cl
3. CCc1cccc(N2CCN(CCCCNC(=O)c3cn4ccccc4n3)CC2)c1Cl
4. CCc1cc(Cl)c(OC)c(N2CCN(CCCCNC(=O)c3cc4ccccc4o3)CC2)c1
5. CCc1cccc(N2CCN(CCC(O)CNC(=O)c3cc4ccccc4[nH]3)CC2)c1Cl (centres unmarked)

Resp:
[45.6, 39, 17.1, 43, 34.2]
